Measured Volume of Distribution values are reported for all entries that follow.
Assay: Pharmacokinetics following intravenous administration in beagle dogs
Format: in vivo
Details: 1.4 mg/kg IV slow bolus
*1 amine or outer side, *2 acyl side, *3 side chain or, on linkers, in order; H or OH if unused. Where a SMILES comes first, the peptide text is derived from it. Bridges are numbered along the chain shown (N, C = ends). [ ]: non-standard residue; d: D form. The star is where a group is joined. pTerphenylCO(4''-OnC5H11) = CCCCCOc1ccc(-c2ccc(-c3ccc(C(=O)*)cc3)cc2)cc1; Orn(4R-OH,5R-OH) = O=C([C@H](C[C@@H](O)[C@@H](O)N[*:3])N[*:1])[*:2]; hTyr(3S-OH,4S-OH) = N[C@H](C(=O)O)[C@H](O)[C@@H](O)c1ccc(O)cc1; Pro(3S-OH,4S-Me) = C[C@H]1CN[C@H](C(=O)O)[C@H]1O; Hyp = O=C(O)[C@@H]1C[C@@H](O)CN1
# answer = value followed by unit

{"COMPOUND": "CCCCCOc1ccc(-c2ccc(-c3ccc(C(=O)NC4CC(O)C(NCC[N+](C)(C)C)NC(=O)C5C(O)C(C)CN5C(=O)C(C(C)O)NC(=O)C(C(O)C(O)c5ccc(O)cc5)NC(=O)C5CC(O)CN5C(=O)C(C(C)O)NC4=O)cc3)cc2)cc1 (stereo not shown)", "RESULT": "0.874 L/kg"}
{"COMPOUND": "CCCCCOc1ccc(-c2ccc(-c3ccc(C(=O)NC4CC(O)C(OCCOCCOC)NC(=O)C5C(O)C(C)CN5C(=O)C(C(C)O)NC(=O)C(C(O)C(O)c5ccc(O)cc5)NC(=O)C5CC(O)CN5C(=O)C(C(C)O)NC4=O)cc3)cc2)cc1 (stereo not shown)", "RESULT": "0.331 L/kg"}
{"COMPOUND": "CCCCCOc1ccc(-c2ccc(-c3ccc(C(=O)NC4CC(O)C(OCCOCCN)NC(=O)C5C(O)C(C)CN5C(=O)C(C(C)O)NC(=O)C(C(O)C(O)c5ccc(O)cc5)NC(=O)C5CC(O)CN5C(=O)C(C(C)O)NC4=O)cc3)cc2)cc1 (stereo not shown)", "RESULT": "0.627 L/kg"}
{"COMPOUND": "CCCCCOc1ccc(-c2ccc(-c3ccc(C(=O)NC4CC(O)C(NCCNCCO)NC(=O)C5C(O)C(C)CN5C(=O)C(C(C)O)NC(=O)C(C(O)C(O)c5ccc(O)cc5)NC(=O)C5CC(O)CN5C(=O)C(C(C)O)NC4=O)cc3)cc2)cc1 (stereo not shown)", "RESULT": "0.687 L/kg"}

Task item: Looking for the measured Volume of Distribution of CC(=O)[O-].CCCCCOc1ccc(-c2ccc(-c3ccc(C(=O)NC4CC(O)C(OCC[N+](C)(C)C)NC(=O)C5C(O)C(C)CN5C(=O)C(C(C)O)NC(=O)C(C(O)C(O)c5ccc(O)cc5)NC(=O)C5CC(O)CN5C(=O)C(C(C)O)NC4=O)cc3)cc2)cc1 (stereo not shown) , can you help?
Reply: 1.36 L/kg

Task item: I would be grateful if you could share the reported Volume of Distribution for CCCCCOc1ccc(-c2ccc(-c3ccc(C(=O)NC4CC(O)C(OCCOCCO)NC(=O)C5C(O)C(C)CN5C(=O)C(C(C)O)NC(=O)C(C(O)C(O)c5ccc(O)cc5)NC(=O)C5CC(O)CN5C(=O)C(C(C)O)NC4=O)cc3)cc2)cc1 (stereo not shown) .
Reply: 0.361 L/kg

Task item: Recorded Volume of Distribution of CCCCCOc1ccc(-c2ccc(-c3ccc(C(=O)N[C@H]4C[C@@H](O)[C@@H](O)NC(=O)[C@@H]5[C@@H](O)[C@@H](C)CN5C(=O)[C@H]([C@@H](C)O)NC(=O)[C@H]([C@H](O)[C@@H](O)c5ccc(O)cc5)NC(=O)[C@@H]5C[C@@H](O)CN5C(=O)[C@H]([C@@H](C)O)NC4=O)cc3)cc2)cc1 [Anidulafungin, anidulafungin, reference compound] ({pTerphenylCO(4''-OnC5H11)}-[Orn(4R-OH,5R-OH)]T[Hyp][hTyr(3S-OH,4S-OH)]T[Pro(3S-OH,4S-Me)]; lactam 1-C) , please.
Reply: 0.779 L/kg
